The entries below are paired with their reported TGI.
Tested on: OVCAR-3 ovarian
Assay: NCI tumour cell line growth inhibition, 48 h

molecule | TGI
Cc1ccc(O)c(Cc2nc3ccccc3nc2-c2cccc(Cl)c2)c1 | > 100 µM
Oc1c(Cl)cc(Cl)c(Cl)c1CNCCNCc1c(O)c(Cl)cc(Cl)c1Cl | 7.08 µM
Clc1c(Cl)[n+](Cc2ccc3ccccc3c2)cn1Cc1ccc2ccccc2c1 | 2.69 µM
CCCCCCCCCCCCCCCC1=NCC[N+]1(CCO)CCO | 5.74 µM
O=C(CN(/C=C/C(=O)C(F)(F)F)c1ccc(Cl)cc1)c1ccc(Cl)cc1 | 17.3 µM
FC1(F)[Se]C2C3CCC(C3)C2C1(F)F (stereo not given) | > 100 µM
COc1ccc(N=c2oc3ccccc3cc2C(N)=O)cc1 | > 100 µM
Cc1ccc(C)n1-c1ccccc1C1C=Cn2c(=O)nnc3c(OC(C)C)c(OC(C)C)c(O)c1c32 (stereo not given) | > 100 µM
CCOC1OC(COC(=O)C(C)(C)C)C(O)CC1n1cc(C)c(=O)[nH]c1=O (stereo not given) | > 100 µM
CC[C@]12C=CCN3CC[C@@]4(c5cc(N=O)c(OC)cc5N(C)[C@H]4[C@@](O)(C(=O)OC)[C@@H]1OC(C)=O)[C@@H]32 | > 100 µM
CC(C)C[C@H](NC(=O)CNC(=O)c1cc(Cl)ccc1Cl)B(O)O | 0.0292 µM
N#CC(c1ccccc1)N(CCCCCCN(C(=O)c1ccccc1)C(C#N)c1ccccc1)C(=O)c1ccccc1 (stereo not given) | > 100 µM
C=C(C)[C@H]1CC[C@@]2(C)C(C1)[C@H](C)CC[C@@H]2O (stereo not given in full) | > 100 µM
Cc1ccc(C)c(N2C(=O)C(=O)C(c3nc4ccccc4s3)/C(=N/N)C2=O)c1 (stereo not given) | > 100 µM
C=CN(C(=O)N1CCN(c2cc3c(cc2F)c(=O)c(C(=O)O)cn3C2CC2)CC1)c1nc(-c2ccc(OC)cc2)cs1 | > 100 µM
NC(=O)C1CCCN1C(=O)C(Cc1cnc[nH]1)NC(=O)C1CCCC1 (stereo not given) | > 100 µM
Cc1ccc2c(c1)C(=C(C#N)C#N)CCCS2(=O)=O | > 100 µM
CNC(=O)C(C)NC(=O)C(Cc1ccccc1)NC(=O)c1ccccc1 (stereo not given) | > 100 µM
COC1CCC(OS(C)(=O)=O)C(CO)O1 (stereo not given) | > 100 µM
COc1ccc2ncn(-c3cc(O[C@H](C)c4ccccc4C(F)(F)F)c(C(N)=O)s3)c2c1 | 0.863 µM
NS(=O)(=O)OC[C@H]1C[C@@H](Nc2ccnc3cc(-c4cccc(SC(F)(F)F)c4)nn23)[C@H](O)[C@@H]1O | 0.034 µM
O=C1/C(=C/c2cccc(Cl)c2)CCCc2ccccc21 | 55.8 µM
CC(=O)Oc1ccccc1 | > 100 µM
COc1ccc(C(=O)C#Cc2cn(C3CC(O)C(CO)O3)c(=O)[nH]c2=O)cc1 (stereo not given) | 34.9 µM
CSC12c3cc(C)n(-c4ccc([N+](=O)[O-])cc4)c3CC(C)(C)CN1C(=O)C2Oc1ccccc1 (stereo not given) | > 100 µM
CCOC(=O)C(C(=O)OCC)=C1SC(=Nc2ccccc2)C(=Nc2ccccc2)N1c1ccccc1 | > 100 µM
Nc1nc(Cl)cc(NCC2(O)CCC2)n1 | > 100 µM
Cc1cc(S(=O)(=O)NC2=NCc3nc4ccccc4n32)c(S)cc1Cl | 40.3 µM
O=c1oc2ccc3ccccc3c2cc1-c1nnc(Nc2ccccc2)s1 | 31.4 µM
Cc1cc2c(C(=O)NC[C@H](C)c3ccccc3)c(O)c(O)cc2c(O)c1-c1c(C)cc2c(C(=O)NC[C@H](C)c3ccccc3)c(O)c(O)cc2c1O | 1.55 µM
O=C1N[C@@H]2[C@@H](O)[C@@H](O)[C@H](O)C[C@H]2c2cc3c(c(O)c21)OCCO3 | 1.01 µM
CCOCCOCCOCc1nc(C#N)c(N)o1 | > 100 µM
CC(C)(C)C1=CC(=C(P(=O)(O)O)P(=O)(O)O)C=C(C(C)(C)C)C1=O | > 50 µM
NNC(=O)C(=O)N/N=C(\CCCC(=O)Nc1ccc(Cl)cc1)CC(=O)c1ccc(F)cc1 | > 100 µM
COC(=O)c1cc2c(=O)n(C)c3ccccc3n2c1C(=O)OC | > 100 µM
CCOC(=O)Cc1c(C)c2cc(C(=O)c3ccccc3)c(O)cc2oc1=O | 53.8 µM
C[C@H](C1CC(C)(O)C(C)(O)C(O)O1)[C@H]1CC[C@H]2[C@@H]3[C@@H]4O[C@@H]4[C@@]4(O)CC=CC(=O)[C@]4(C)[C@H]3CC[C@]12C (stereo not given in full) | > 50 µM
C=C(c1ccc(OC)c(/C=C/C(=O)c2ccc3c(c2)OCO3)c1)c1cc(OC)c(OC)c(OC)c1 | 8.21 µM
COc1ccc(C(CC2(c3ccc(OC)cc3)SCCCS2)NC(C)=O)cc1 (stereo not given) | > 100 µM
C=CCC1(CN(C)C)CC/C(=C\c2ccc(OC)cc2)C1=O (stereo not given) | > 100 µM
